tested on: TNF-α release from LPS-stimulated human peripheral blood mononuclear cells; experiment: Cell based assay for TNF-α release (LPS stimulation of human PBMNC's); conditions: PBMC; human PBMN cells, LPS 1 μg/ml, incubated overnight, ELISA; read-out: IC50, inhibition of TNF-α release
assay.metric: IC50

Take a look at these entries with their results.
{"columns": ["compound", "IC50"],
 "data": [
  ["Cc1nn(C2CCCC2)c2cc(C3=NOC(C)(c4nc(-c5cc(F)ccc5F)no4)C3)ccc12 (stereo not drawn) [Compound 23]", "4.2 to 10 µM"],
  ["CCc1nn(C2CCCC2)c2cc(C3=NOC(C)(c4nc(-c5cc(F)ccc5F)no4)C3)ccc12 (stereo not drawn) [Compound 32]", "4.2 to 10 µM"],
  ["Cc1nn(C2CCCC2)c2cc(C3=NOC(C)(C#N)C3)ccc12 (stereo not drawn) [Compound 2]", "4.2 to 10 µM"]
]}

The reported IC50 of the compound CCc1nn(C2CCCC2)c2cc(C3=NOC(C)(C#N)C3)ccc12 (stereo not drawn) [Compound 3] was 4.2 to 10 µM

# compound COc1ccc(C2CNC(=O)C2)cc1OC1CCCC1 (stereo not drawn) [rolipram, reference compound] ; its IC50 = 1.2 µM

Reported IC50 for CCc1nn(C2CCCC2)c2cc(C3=NOC(C)(c4nc(-c5cc(Cl)ccc5Cl)no4)C3)ccc12 (stereo not drawn) [Compound 31] was 4.2 to 10 µM
